- Target system: type IV phosphodiesterase
- Measurement description: Phosphodiesterase inhibition activity (in vitro), Type IV
pIC50: −log10 of the molar value.
The reader will find reported pIC50 values listed item by item below.
Property name: pIC50

CCc1cc(C)c2c(-c3cccc(Cl)c3)cc(=O)n(C3CC3)c2n1 [Example 35]
4.66
CCc1cc(C)c2c(-c3ccccc3)cc(=O)n(C)c2n1 [Example 26]
4.07
CCn1c(=O)cc(C2CCCCC2)c2cccnc21 [Example 46, hydrate]
< 4.52
CCc1cc(C)c2c(-c3cccc(Br)c3)cc(=O)n(CC)c2n1 [Example 31]
< 4.52
CCc1cc(C)c2c(-c3cccc(Cl)c3)cc(=S)n(C)c2n1 [Example 43]
< 4.52
CCn1c(=O)cc(-c2cccc(Cl)c2)c2c(C)cc(C)nc21 [Example 29]
< 4.52
CCCn1c(=O)cc(-c2cccc(Br)c2)c2c(C)cc(CC)nc21 [Example 33]
< 4.52
CCn1c(=O)cc(-c2cccc(Cl)c2)c2cccnc21 [Example 15]
4.23
CCn1c(=O)cc(-c2ccccc2)c2c(C)cc(C)nc21 [Example 38]
< 4.52
